Record form. Attribute: rat MASP1 IC50. Fill in for each entry.
# test-target: T1, recombinant rat MASP1 active protease (amino acids 302-704, C-terminal His Tag) (rat, UniProt Q8CHN8 302-704)
# T1 sequence: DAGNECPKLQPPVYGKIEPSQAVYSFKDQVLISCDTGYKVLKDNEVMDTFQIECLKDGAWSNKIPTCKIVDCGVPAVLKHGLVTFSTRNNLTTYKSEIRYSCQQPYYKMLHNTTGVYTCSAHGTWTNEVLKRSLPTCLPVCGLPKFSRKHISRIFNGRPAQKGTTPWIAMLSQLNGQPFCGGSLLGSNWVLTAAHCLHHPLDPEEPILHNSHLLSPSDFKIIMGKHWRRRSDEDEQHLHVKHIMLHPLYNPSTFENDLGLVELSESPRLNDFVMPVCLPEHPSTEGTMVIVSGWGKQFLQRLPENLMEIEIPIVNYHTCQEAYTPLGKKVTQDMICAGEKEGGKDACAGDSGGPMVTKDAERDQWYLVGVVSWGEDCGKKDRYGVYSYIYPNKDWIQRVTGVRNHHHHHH
# assay-overview: cell-based or functional assay
Bridge positions count the residues as written; N and C are the ends. Square brackets hold non-standard residues; d marks the D form. Ends that are not written are not given here. Pro(4-spirocPr) = O=C(O)[C@@H]1CC2(CC2)CN1; Oic = O=C(O)[C@@H]1C[C@@H]2CCCC[C@@H]2N1; tBuAla = CC(C)(C)C[C@H](N)C(=O)O; Pen = CC(C)(S)[C@H](N)C(=O)O; NMeC = CN[C@@H](CS)C(=O)O; Sar = CNCC(=O)O
Answers are plain numbers, in nM.

Field: example entries. Status: answers known.
[Sar]ICSRSLP[Oic]I[Pen]I[5‑Azaspiro(2.4)heptane‑1‑carboxylic acid]-OH (disulfide 3-11) [Example 419: ((N-Me)G)-IC+SRSLP-(Oic)-I-(Pen)+I-((5-Azaspiro[2.4]heptane-1-carboxylic acid)-OH] : 70
AICSRS[tBuAla]P[Oic]I[NMeC]IPD-NH2 (disulfide 3-11; N-terminus assumed; SMILES CC[C@H](C)[C@H](NC(=O)[C@H](C)N)C(=O)N[C@H]1CSSC[C@@H](C(=O)N[C@H](C(=O)N2CCC[C@H]2C(=O)N[C@@H](CC(=O)O)C(N)=O)[C@@H](C)CC)N(C)C(=O)[C@H]([C@@H](C)CC)NC(=O)[C@@H]2C[C@@H]3CCCC[C@@H]3N2C(=O)[C@@H]2CCCN2C(=O)[C@H](CC(C)(C)C)NC(=O)[C@H](CO)NC(=O)[C@H](CCCNC(=N)N)NC(=O)[C@H](CO)NC1=O) [Example 268: AIC+SRS-((tBu)A)-P-(Oic)-I-((N-Me)C)+IPD-NH2] : 100

# input for lookup
input: // Input: AICSRS[tBuAla]P[Pro(4-spirocPr)]I[Pen]IPD-OH (disulfide 3-11; N-terminus assumed; SMILES CC[C@H](C)[C@H](NC(=O)[C@H](C)N)C(=O)N[C@H]1CSSC(C)(C)[C@@H](C(=O)N[C@H](C(=O)N2CCC[C@H]2C(=O)N[C@@H](CC(=O)O)C(=O)O)[C@@H](C)CC)NC(=O)[C@H]([C@@H](C)CC)NC(=O)[C@@H]2CC3(CC3)CN2C(=O)[C@@H]2CCCN2C(=O)[C@H](CC(C)(C)C)NC(=O)[C@H](CO)NC(=O)[C@H](CCCNC(=N)N)NC(=O)[C@H](CO)NC1=O) [Example 31: AIC+SRS-((tBu)A)-P-((6S)-5-Azaspiro[2.4]heptane-6-carboxylic acid)-I-(Pen)+IPD-OH] . Output its rat MASP1 IC50 only.
output: 22
